system_tested: wt-CFTR (Homo sapiens, UniProt P13569)
Sequence (P13569 whole entry): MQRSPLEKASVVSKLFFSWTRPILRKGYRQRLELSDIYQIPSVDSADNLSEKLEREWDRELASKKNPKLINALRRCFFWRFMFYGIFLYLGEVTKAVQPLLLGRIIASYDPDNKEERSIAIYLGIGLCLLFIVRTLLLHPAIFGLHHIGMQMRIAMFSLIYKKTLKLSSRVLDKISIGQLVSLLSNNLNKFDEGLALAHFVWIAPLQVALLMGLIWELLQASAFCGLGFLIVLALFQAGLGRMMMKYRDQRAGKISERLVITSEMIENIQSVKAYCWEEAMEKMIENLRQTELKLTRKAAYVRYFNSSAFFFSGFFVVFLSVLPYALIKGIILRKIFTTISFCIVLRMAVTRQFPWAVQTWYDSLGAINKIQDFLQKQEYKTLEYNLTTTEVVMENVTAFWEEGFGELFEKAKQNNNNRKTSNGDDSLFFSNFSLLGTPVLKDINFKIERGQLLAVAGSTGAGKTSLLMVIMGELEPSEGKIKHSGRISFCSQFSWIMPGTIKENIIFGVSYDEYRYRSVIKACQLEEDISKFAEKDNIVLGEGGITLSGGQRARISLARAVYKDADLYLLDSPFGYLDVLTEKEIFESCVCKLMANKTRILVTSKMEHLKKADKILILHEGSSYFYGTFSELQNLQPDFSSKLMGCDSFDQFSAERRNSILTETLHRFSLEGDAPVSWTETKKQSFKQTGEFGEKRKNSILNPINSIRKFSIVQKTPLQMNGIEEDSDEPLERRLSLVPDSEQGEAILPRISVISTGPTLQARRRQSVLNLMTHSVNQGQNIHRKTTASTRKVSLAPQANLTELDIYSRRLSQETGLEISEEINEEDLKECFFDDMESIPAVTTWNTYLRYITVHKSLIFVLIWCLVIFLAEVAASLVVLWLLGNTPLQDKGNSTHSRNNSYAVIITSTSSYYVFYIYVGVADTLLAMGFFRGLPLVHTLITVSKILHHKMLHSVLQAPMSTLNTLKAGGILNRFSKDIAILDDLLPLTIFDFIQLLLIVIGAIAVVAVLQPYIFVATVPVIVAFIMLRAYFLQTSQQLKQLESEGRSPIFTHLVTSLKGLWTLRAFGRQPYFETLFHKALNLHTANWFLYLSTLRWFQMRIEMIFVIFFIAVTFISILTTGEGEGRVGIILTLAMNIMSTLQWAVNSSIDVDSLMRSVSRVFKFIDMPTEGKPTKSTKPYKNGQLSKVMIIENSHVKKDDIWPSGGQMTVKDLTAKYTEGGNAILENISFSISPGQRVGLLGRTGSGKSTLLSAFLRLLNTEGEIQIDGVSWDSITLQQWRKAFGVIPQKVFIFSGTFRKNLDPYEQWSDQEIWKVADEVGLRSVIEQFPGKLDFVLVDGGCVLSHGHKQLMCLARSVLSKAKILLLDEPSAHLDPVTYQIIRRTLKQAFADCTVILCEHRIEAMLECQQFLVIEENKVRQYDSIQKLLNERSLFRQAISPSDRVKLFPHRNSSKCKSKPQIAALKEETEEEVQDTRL
procedure_details: iodide efflux in wt-CFTR-CHO cells
measurement_type: EC50

Record request: EC50 value, item CCCCc1c(-c2ccc(F)cc2)[nH]c2nccnc12
78 µM

Now take the following compound into account.
Form field: reported EC50 of Br.CCCCc1c(-c2cccc(O)c2)[nH]c2nccnc12
97 µM

* * *

System: wt-CFTR-CHO cells
procedure_details: MTT cytotoxicity assay
Type: cell-based
measurement_conditions: 100 μM, 24 h
measurement_type: cytotoxicity (cell viability, MTT)

Report cytotoxicity (cell viability, MTT) for CCCCc1c(-c2ccccc2F)[nH]c2nccnc12 please.
not cytotoxic

# repeat for CCCCc1c(-c2ccc(F)cc2)[nH]c2nccnc12
not cytotoxic
